- SYSTEM NAME: T1, HLA B*0702 molecule (human)
- T1 MHC heavy: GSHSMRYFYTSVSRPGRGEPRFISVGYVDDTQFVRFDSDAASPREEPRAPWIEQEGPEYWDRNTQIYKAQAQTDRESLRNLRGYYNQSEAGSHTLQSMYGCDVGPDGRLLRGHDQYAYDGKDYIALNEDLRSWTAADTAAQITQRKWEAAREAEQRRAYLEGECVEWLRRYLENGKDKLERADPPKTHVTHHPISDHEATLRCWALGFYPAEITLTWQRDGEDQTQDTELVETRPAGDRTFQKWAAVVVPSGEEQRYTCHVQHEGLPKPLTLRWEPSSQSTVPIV
- ASSAY DETAILS: HLA binding assay, inhibition of binding of a radiolabeled probe peptide to the HLA molecule
VALUE TYPE: pIC50
Please express pIC50 as -log10 of the molar concentration.

BINDER: NPNMIDKTPV [DENV4 peptide NPNMIDKTPV (Table 4 #203, positions 3317-3326)]
pIC50: 6.39

Lab book: pIC50 of NPWMEDKTPV [DENV2 peptide NPWMEDKTPV (Table 4 #204, positions 3317-3326)] noted as 7.25
